Data provenance is patent US20030199671A1.

# Subject of test: T1, human IgG (unfractionated, polyclonal)
# T1 construct: also called hIgG; polyclonal human IgG
# Procedure text: filterplate; 25 mg human IgG applied per ml resin
Starred links: 1 amine or outer side, 2 acyl side, 3 side chain; linkers in the order of their positions; H or OH if unused. Positions of bridges follow the written chain, without caps; N, C: chain ends. Primed or numbered codes have the meaning given here. code X(3) = -NH-(CH2CH2O)2-CH2CH2- (from -X-NH2 = -NH-(CH2CH2O)2-CH2CH2-NH2), C(COCCOCC[*:2])N[*:1]; code Z = not defined here; Su = not defined here
Readout type: Static Cap. (mg/mL)

Sample answers from the record:
Ac-GDDHMCVYTTWGELIWCDNH-{code X(3)-code Z-code X(3)-NH2} (not fully specified (bridges); printed as Ac-GDDHMCVYTTWGELIWCDNH-X-Z-X-NH2; cysteine pairing not given here; reading uncertain, DX249 derivative; immobilised) [DX911] = 9
Ac-GDDHMCVYTTWGELIWCDNH-{code X(3)-Su-code X(3)-NH2} (not fully specified (bridges); printed as Ac-GDDHMCVYTTWGELIWCDNH-X-Su-X-NH2; cysteine pairing not given here; reading uncertain, DX249 derivative; immobilised) [DX909] = 11

P = Ac-GDDHMCVYTTWGELIWCDNHEPGPEGGGK-NH2 (disulfide 6-17 (inferred), Synthetic disulfide-cyclised peptide) [DX249]
Q = Ac-GDDHMCVYTTWGELIWCDNH-{code X(3)-NH2} (not fully specified (bridges); printed as Ac-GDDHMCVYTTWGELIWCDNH-X-NH2; cysteine pairing not given here, DX249 derivative; immobilised) [DX907]
For the pair P and Q , which entry has the numerically smaller recorded Static Cap.? Which one? Tell me its label.
Q
